Protocol text: Inhibition of NS5A in HuH7 cell infected HCV genotype 1a H77 assessed as decrease in viral replication after 3 days in presence of 40% human plasma by luciferase reporter gene assay
pEC50: −log10 of the molar value.
Consider the following compounds and their measured pEC50 readings.
Parameter measured: pEC50

| Compound | Number |
| --- | --- |
| COC(=O)N[C@H](C(=O)N1CCC[C@H]1c1nc2ccc([C@@H]3CC[C@@H](c4ccc5nc([C@@H]6CCCN6C(=O)[C@@H](NC(=O)OC)C(C)C)[nH]c5c4)N3c3ccc(C(C)(C)C)cc3)cc2[nH]1)C(C)C | 8.70 |
| COC(=O)N[C@H](C(=O)N1CCC[C@H]1c1nc2ccc([C@H]3CC[C@H](c4ccc5nc([C@@H]6CCCN6C(=O)[C@@H](NC(=O)OC)C(C)C)[nH]c5c4)N3c3ccc(C4CCCCC4)cc3)cc2[nH]1)C(C)C | 9.97 |
| COC(=O)N[C@H](C(=O)N1CCC[C@H]1c1nc2ccc([C@H]3CC[C@H](c4ccc5nc([C@@H]6CCCN6C(=O)[C@@H](NC(=O)OC)C(C)C)[nH]c5c4)N3c3ccc(N4CCCCC4)c(F)c3)cc2[nH]1)C(C)C | 9.70 |
| COC(=O)N[C@H](C(=O)N1CCC[C@H]1c1nc2ccc([C@H]3CC[C@H](c4ccc5nc([C@@H]6CCCN6C(=O)[C@@H](NC(=O)OC)C(C)C)[nH]c5c4)N3c3ccc(N4CCOCC4)c(F)c3)cc2[nH]1)C(C)C | 9.32 |
| COC(=O)N[C@H](C(=O)N1CCC[C@H]1c1nc2ccc([C@H]3CC[C@H](c4ccc5nc([C@@H]6CCCN6C(=O)[C@@H](NC(=O)OC)C(C)C)[nH]c5c4)N3c3ccc(OC(F)(F)F)cc3)cc2[nH]1)C(C)C | 9.56 |

----------
Protocol text: Inhibition of NS5A in HuH7 cell infected HCV genotype 1a H77 assessed as decrease in viral replication after 3 days by luciferase reporter gene assay
pEC50: −log10 of the molar value.

| Compound | pEC50 |
| --- | --- |
| COC(=O)N[C@H](C(=O)N1CCC[C@H]1c1nc2ccc([C@H]3CC[C@H](c4ccc5nc([C@@H]6CCCN6C(=O)[C@@H](NC(=O)OC)C(C)C)[nH]c5c4)N3c3ccc(N4CCC(c5ccccc5)CC4)cc3)cc2[nH]1)C(C)C | 9.49 |
| COC(=O)N[C@H](C(=O)N1CCC[C@H]1c1nc2ccc([C@H]3CC[C@H](c4ccc5nc([C@@H]6CCCN6C(=O)[C@@H](NC(=O)OC)C(C)C)[nH]c5c4)N3c3ccc(C(C)(C)C)cc3)cc2[nH]1)C(C)C | 11.05 |
| COC(=O)N[C@H](C(=O)N1CCC[C@H]1c1nc2ccc([C@H]3CC[C@H](c4ccc5nc([C@@H]6CCCN6C(=O)[C@@H](NC(=O)OC)C(C)C)[nH]c5c4)N3c3cc(F)c(N4CCC(c5ccc(F)cc5)CC4)c(F)c3)cc2[nH]1)C(C)C | 11.52 |
| COC(=O)N[C@H](C(=O)N1CCC[C@H]1c1nc2ccc([C@H]3CC[C@H](c4ccc5nc([C@@H]6CCCN6C(=O)[C@@H](NC(=O)OC)C(C)C)[nH]c5c4)N3c3ccc(Cl)cc3)cc2[nH]1)C(C)C | 11.22 |
| COC(=O)N[C@H](C(=O)N1CCC[C@H]1C(=O)Nc1ccc([C@@H]2CC[C@@H](c3ccc(NC(=O)[C@@H]4CCCN4C(=O)[C@@H](NC(=O)OC)C(C)C)cc3)N2c2ccc(C(C)(C)C)cc2)cc1)C(C)C | 10.85 |
| COC(=O)N[C@H](C(=O)N1CCC[C@H]1c1nc2ccc([C@H]3CC[C@H](c4ccc5nc([C@@H]6CCCN6C(=O)[C@@H](NC(=O)OC)C(C)C)[nH]c5c4)N3c3ccc(N4CCOCC4)c(F)c3)cc2[nH]1)C(C)C | 9.72 |
| COC(=O)N[C@H](C(=O)N1CCC[C@H]1c1nc2cc(F)c([C@H]3CC[C@H](c4cc5[nH]c([C@@H]6CCCN6C(=O)[C@@H](NC(=O)OC)C6CCOCC6)nc5cc4F)N3c3cc(F)c(N4CCC(c5ccccc5)CC4)c(F)c3)cc2[nH]1)C1CCOCC1 | 11.40 |
| COC(=O)N[C@H](C(=O)N1CCC[C@H]1c1nc2ccc([C@H]3CC[C@H](c4ccc5nc([C@@H]6CCCN6C(=O)[C@@H](NC(=O)OC)C(C)C)[nH]c5c4)N3c3ccc(Oc4ccccc4)cc3)cc2[nH]1)C(C)C | 10.92 |
| COC(=O)N[C@H](C(=O)N1CCC[C@H]1c1nc2ccc([C@H]3CC[C@H](c4ccc5nc([C@@H]6CCCN6C(=O)[C@@H](NC(=O)OC)C(C)C)[nH]c5c4)N3c3ccc(N4CCCCC4)c(F)c3)cc2[nH]1)C(C)C | 10.74 |
| COC(=O)N[C@H](C(=O)N1CCC[C@H]1c1nc2cc([C@H]3CC[C@H](c4cc5nc([C@@H]6CCCN6C(=O)[C@@H](NC(=O)OC)[C@@H](C)OC)[nH]c5cc4F)N3c3cc(F)c(N4CCC(c5ccc(F)cc5)CC4)c(F)c3)c(F)cc2[nH]1)[C@@H](C)OC | 11.74 |
| COC(=O)N[C@H](C(=O)N1CCC[C@H]1c1nc2ccc([C@H]3CC[C@H](c4ccc5nc([C@@H]6CCCN6C(=O)[C@@H](NC(=O)OC)C(C)C)[nH]c5c4)N3c3ccc(-c4ccccc4)cc3)cc2[nH]1)C(C)C | 11.40 |
| COC(=O)N[C@H](C(=O)N1CCC[C@H]1c1nc2cc([C@H]3CC[C@H](c4ccc5[nH]c([C@@H]6CCCN6C(=O)[C@@H](NC(=O)OC)C(C)C)nc5c4)N3c3cc(F)c(N4CCCCC4)c(F)c3)ccc2[nH]1)C(C)C | 11.30 |
| COC(=O)N[C@H](C(=O)N1CCC[C@H]1C(=O)Nc1ccc([C@H]2CC[C@H](c3ccc(NC(=O)[C@@H]4CCCN4C(=O)[C@@H](NC(=O)OC)C(C)C)cc3)N2c2ccc(C(C)(C)C)cc2)cc1)C(C)C | 9.87 |
| COC(=O)N[C@H](C(=O)N1CCC[C@H]1c1nc2ccc([C@@H]3CC[C@@H](c4ccc5nc([C@@H]6CCCN6C(=O)[C@@H](NC(=O)OC)C(C)C)[nH]c5c4)N3c3ccc(C(C)(C)C)cc3)cc2[nH]1)C(C)C | 10.15 |
| COC(=O)N[C@H](C(=O)N1CCC[C@H]1c1nc2ccc([C@H]3CC[C@H](c4ccc5nc([C@@H]6CCCN6C(=O)[C@@H](NC(=O)OC)C(C)C)[nH]c5c4)N3c3ccc(C4CC4)cc3)cc2[nH]1)C(C)C | 10.92 |
| COC(=O)N[C@H](C(=O)N1CCC[C@H]1c1nc2ccc([C@H]3CC[C@H](c4ccc5nc([C@@H]6CCCN6C(=O)[C@@H](NC(=O)OC)C(C)C)[nH]c5c4)N3c3ccc(N4CCOCC4)cc3)cc2[nH]1)C(C)C | 9.42 |
| COC(=O)N[C@H](C(=O)N1CCC[C@H]1c1nc2cc(F)c([C@H]3CC[C@H](c4cc5[nH]c([C@@H]6CCCN6C(=O)[C@@H](NC(=O)OC)[C@@H](C)OC)nc5cc4F)N3c3cc(F)c(N4CCC(c5ccccc5)CC4)c(F)c3)cc2[nH]1)[C@@H](C)OC | 12.00 |

----------
Protocol text: Inhibition of HCV genotype 1b Con1 NS5A expressed in HuH7 cell infected HCV genotype 4a assessed as decrease in viral replication after 3 days by luciferase reporter gene assay

| Compound | EC50 (pM) |
| --- | --- |
| COC(=O)N[C@H](C(=O)N1CCC[C@H]1c1nc2cc(F)c([C@H]3CC[C@H](c4cc5[nH]c([C@@H]6CCCN6C(=O)[C@@H](NC(=O)OC)C6CCOCC6)nc5cc4F)N3c3cc(F)c(N4CCC(c5ccccc5)CC4)c(F)c3)cc2[nH]1)C1CCOCC1 | 6 |
| COC(=O)N[C@H](C(=O)N1CCC[C@H]1c1nc2ccc([C@H]3CC[C@H](c4ccc5nc([C@@H]6CCCN6C(=O)[C@@H](NC(=O)OC)C(C)C)[nH]c5c4)N3c3ccc(N4CCC(c5ccccc5)CC4)cc3)cc2[nH]1)C(C)C | 243 |
| COC(=O)N[C@H](C(=O)N1CCC[C@H]1c1nc2cc(F)c([C@H]3CC[C@H](c4cc5[nH]c([C@@H]6CCCN6C(=O)[C@@H](NC(=O)OC)C(C)C)nc5cc4F)N3c3cc(F)c(N4CCC(c5ccccc5)CC4)c(F)c3)cc2[nH]1)C(C)C | 4 |
| COC(=O)N[C@H](C(=O)N1CCC[C@H]1c1nc2cc(F)c([C@H]3CC[C@H](c4cc5[nH]c([C@@H]6CCCN6C(=O)[C@@H](NC(=O)OC)C6CCOCC6)nc5cc4F)N3c3cc(F)c(N4CCC(c5ccc(F)cc5)CC4)c(F)c3)cc2[nH]1)C1CCOCC1 | 6 |
| COC(=O)N[C@H](C(=O)N1CCC[C@H]1c1nc2cc(F)c([C@H]3CC[C@H](c4cc5[nH]c([C@@H]6CCCN6C(=O)[C@@H](NC(=O)OC)C(C)C)nc5cc4F)N3c3cc(F)c(N4CCC(c5ccc(F)cc5)CC4)c(F)c3)cc2[nH]1)C(C)C | 1 |
| COC(=O)N[C@H](C(=O)N1CCC[C@H]1c1nc2ccc([C@H]3CC[C@H](c4ccc5nc([C@@H]6CCCN6C(=O)[C@@H](NC(=O)OC)C(C)C)[nH]c5c4)N3c3ccc(N4CCCCC4)c(F)c3)cc2[nH]1)C(C)C | 17 |
| COC(=O)N[C@H](C(=O)N1CCC[C@H]1c1nc2ccc([C@H]3CC[C@H](c4ccc5nc([C@@H]6CCCN6C(=O)[C@@H](NC(=O)OC)C(C)C)[nH]c5c4)N3c3ccc(F)cc3)cc2[nH]1)C(C)C | 14 |
| COC(=O)N[C@H](C(=O)N1CCC[C@H]1c1nc2ccc([C@H]3CC[C@H](c4ccc5nc([C@@H]6CCCN6C(=O)[C@@H](NC(=O)OC)C(C)C)[nH]c5c4)N3c3ccc(Cl)cc3)cc2[nH]1)C(C)C | 5 |
| COC(=O)N[C@H](C(=O)N1CCC[C@H]1c1nc2ccc([C@H]3CC[C@H](c4ccc5nc([C@@H]6CCCN6C(=O)[C@@H](NC(=O)OC)C(C)C)[nH]c5c4)N3c3ccc(OC(F)(F)F)cc3)cc2[nH]1)C(C)C | 13 |
| COC(=O)N[C@H](C(=O)N1CCC[C@H]1c1nc2cc([C@H]3CC[C@H](c4cc5nc([C@@H]6CCCN6C(=O)[C@@H](NC(=O)OC)[C@@H](C)OC)[nH]c5cc4F)N3c3cc(F)c(N4CCC(c5ccc(F)cc5)CC4)c(F)c3)c(F)cc2[nH]1)[C@@H](C)OC [A-1325912.0] | 1.9 |
| COC(=O)N[C@H](C(=O)N1CCC[C@H]1c1nc2cc([C@H]3CC[C@H](c4ccc5[nH]c([C@@H]6CCCN6C(=O)[C@@H](NC(=O)OC)C(C)C)nc5c4)N3c3cc(F)c(N4CCCCC4)c(F)c3)ccc2[nH]1)C(C)C | 5 |

All figures here come from BindingDB's records for doi:10.1021/acs.jmedchem.8b00082.
